# System: Plasmodium telomeric sequence FPf1T G-quadruplex
# MEASUREMENT_PROTOCOL: FRET melting experiments, FPf1T
# Assay type: binding, P. falciparum
# EXPERIMENTAL_PARAMETERS: 2 μM compound, 0.2 μM oligonucleotide, K+ conditions
ASSAY_METRIC: ΔTm FPf1T (°C)
Only the number, expressed in °C, is required.

GET /values?readout=ΔTm FPf1T&item= COc1ccc2c(-c3ccc(CNCCCN(C)C)cc3)nc(-c3ccc(CNCCCN(C)C)cc3)cc2c1
15.3

GET /values?readout=ΔTm FPf1T&item= CN1CCN(CCNCc2ccc(-c3cc(-c4ccc(CNCCN5CCN(C)CC5)cc4)c4ccccc4n3)cc2)CC1
10.7

---
GET /values?readout=ΔTm FPf1T&item= COc1ccc2cc(-c3ccc(CNCCCN(C)C)cc3)nc(-c3ccc(CNCCCN(C)C)cc3)c2c1
20.3

GET /values?readout=ΔTm FPf1T&item= c1cc(CNCCN2CCOCC2)cc(-c2nc(-c3cccc(CNCCN4CCOCC4)c3)c3ccccc3n2)c1
0.5

GET /values?readout=ΔTm FPf1T&item= c1cc(CNCCN2CCOCC2)cc(-c2cc(-c3cccc(CNCCN4CCOCC4)c3)c3ccccc3n2)c1
0.9

GET /values?readout=ΔTm FPf1T&item= COc1ccc2cc(-c3ccc(CNCCCCN(C)C)cc3)nc(-c3ccc(CNCCCCN(C)C)cc3)c2c1
27.3

GET /values?readout=ΔTm FPf1T&item= CN(C)CCCNCc1ccc(-c2nc(-c3ccc(CNCCCN(C)C)cc3)c3ccccc3n2)cc1
11.6

GET /values?readout=ΔTm FPf1T&item= CN(C)CCCNCc1ccc(-c2cc(-c3ccc(CNCCCN(C)C)cc3)c3ccccc3n2)cc1
8.4

GET /values?readout=ΔTm FPf1T&item= CN1CCN(CCCNCc2ccc(-c3cc(-c4ccc(CNCCCN5CCN(C)CC5)cc4)c4ccccc4n3)cc2)CC1
9.4

GET /values?readout=ΔTm FPf1T&item= c1ccc2c(-c3ccc(CNCCN4CCOCC4)cc3)nc(-c3ccc(CNCCN4CCOCC4)cc3)nc2c1
1.4

GET /values?readout=ΔTm FPf1T&item= c1ccc2c(-c3ccc(CNCCCN4CCOCC4)cc3)cc(-c3ccc(CNCCCN4CCOCC4)cc3)nc2c1
3.7

GET /values?readout=ΔTm FPf1T&item= COc1ccc2nc(-c3ccc(CNCCCCN(C)C)cc3)nc(-c3ccc(CNCCCCN(C)C)cc3)c2c1
19.8

GET /values?readout=ΔTm FPf1T&item= COc1ccc2nc(-c3ccc(CNCCCN(C)C)cc3)nc(-c3ccc(CNCCCN(C)C)cc3)c2c1
16.0

GET /values?readout=ΔTm FPf1T&item= COc1ccc2c(-c3ccc(CNCCCCN(C)C)cc3)nc(-c3ccc(CNCCCCN(C)C)cc3)cc2c1
12.8

GET /values?readout=ΔTm FPf1T&item= COc1ccc2c(-c3ccc(CNCCCCN(C)C)cc3)nc(-c3ccc(CNCCCCN(C)C)cc3)nc2c1
18.3

====

# Test system: Plasmodium telomeric sequence FPf8T G-quadruplex
# MEASUREMENT_PROTOCOL: FRET melting experiments, FPf8T
# Assay type: binding, P. falciparum
# EXPERIMENTAL_PARAMETERS: 2 μM compound, 0.2 μM oligonucleotide, K+ conditions
ASSAY_METRIC: ΔTm FPf8T (°C)
Only the number, expressed in °C, is required.

Solved cases below.
GET /values?readout=ΔTm FPf8T&item= c1cc(CNCCN2CCOCC2)cc(-c2cc(-c3cccc(CNCCN4CCOCC4)c3)c3ccccc3n2)c1 [Compound 1t]
0.6

GET /values?readout=ΔTm FPf8T&item= CN(C)CCNCc1ccc(-c2cc(-c3ccc(CNCCN(C)C)cc3)c3ccccc3n2)cc1 [Compound 1c]
2.7

GET /values?readout=ΔTm FPf8T&item= COc1ccc2cc(-c3ccc(CNCCCCN(C)C)cc3)nc(-c3ccc(CNCCCCN(C)C)cc3)c2c1 [Compound 2e]
26.6

Turning to the following compound.
GET /values?readout=ΔTm FPf8T&item= CN1CCN(CCNCc2ccc(-c3cc(-c4ccc(CNCCN5CCN(C)CC5)cc4)c4ccccc4n3)cc2)CC1 [Compound 1f]
11.0

====

Measured CC50 at 72 h of individual entries
# MEASUREMENT_PROTOCOL: Cytotoxicity evaluation, MTT
# Type: cell-based, human
# EXPERIMENTAL_PARAMETERS: human
Only the number, expressed in µM, is required.

GET /values?readout=CC50 at 72 h&item= COc1ccc2nc(-c3ccc(CNCCN4CCN(C)CC4)cc3)nc(-c3ccc(CNCCN4CCN(C)CC4)cc3)c2c1 [Compound 3l]
6.53

GET /values?readout=CC50 at 72 h&item= COc1ccc2nc(-c3ccc(CNCCCCN(C)C)cc3)cc(-c3ccc(CNCCCCN(C)C)cc3)c2c1 [Compound 1i]
3.58

GET /values?readout=CC50 at 72 h&item= CN(C)CCCNCc1cccc(-c2nc(-c3cccc(CNCCCN(C)C)c3)c3ccccc3n2)c1 [Compound 3s]
1.14

GET /values?readout=CC50 at 72 h&item= CN1CCN(CCNCc2ccc(-c3cc(-c4ccc(CNCCN5CCN(C)CC5)cc4)c4ccccc4n3)cc2)CC1 [Compound 1f]
4.09

GET /values?readout=CC50 at 72 h&item= CN1CCN(CCCNCc2ccc(-c3nc(-c4ccc(CNCCCN5CCN(C)CC5)cc4)c4ccccc4n3)cc2)CC1 [Compound 3e]
15.9

---
GET /values?readout=CC50 at 72 h&item= COc1ccc2nc(-c3ccc(CNCCCCN(C)C)cc3)nc(-c3ccc(CNCCCCN(C)C)cc3)c2c1 [Compound 3h]
11.7

GET /values?readout=CC50 at 72 h&item= COc1ccc2nc(-c3ccc(CNCCCCN4CCN(C)CC4)cc3)cc(-c3ccc(CNCCCCN4CCN(C)CC4)cc3)c2c1 [Compound 1k]
6.16

====

# MEASUREMENT_PROTOCOL: Cytotoxicity evaluation, MTT
# Assay type: cell-based, human
# EXPERIMENTAL_PARAMETERS: human
ASSAY_METRIC: log10(CC50 at 72 h) (log10 of the value in µM)
Hello, just confirming the data are log10 of CC50 at 72 h with units of µM.

Solved cases below.
GET /values?readout=log10(CC50 at 72 h)&item= COc1ccc2c(-c3ccc(CNCCCCN(C)C)cc3)nc(-c3ccc(CNCCCCN(C)C)cc3)cc2c1
1.03

GET /values?readout=log10(CC50 at 72 h)&item= COc1ccc2nc(-c3ccc(CNCCCN4CCN(C)CC4)cc3)cc(-c3ccc(CNCCCN4CCN(C)CC4)cc3)c2c1
0.01

GET /values?readout=log10(CC50 at 72 h)&item= CN(C)CCCCNCc1ccc(-c2cc(-c3ccc(CNCCCCN(C)C)cc3)c3ccccc3n2)cc1
0.77

GET /values?readout=log10(CC50 at 72 h)&item= COc1ccc2c(-c3ccc(CNCCCN(C)C)cc3)cc(-c3ccc(CNCCCN(C)C)cc3)nc2c1
-0.32

GET /values?readout=log10(CC50 at 72 h)&item= COc1ccc2cc(-c3ccc(CNCCCN4CCN(C)CC4)cc3)nc(-c3ccc(CNCCCN4CCN(C)CC4)cc3)c2c1
0.86

GET /values?readout=log10(CC50 at 72 h)&item= COc1ccc2c(-c3ccc(CNCCCCN4CCN(C)CC4)cc3)cc(-c3ccc(CNCCCCN4CCN(C)CC4)cc3)nc2c1
0.52

Turning to the following compound.
GET /values?readout=log10(CC50 at 72 h)&item= COc1ccc2c(-c3ccc(CNCCCN4CCN(C)CC4)cc3)nc(-c3ccc(CNCCCN4CCN(C)CC4)cc3)nc2c1
0.10

====

# Test system: P. falciparum CQ-resistant strain W2
# MEASUREMENT_PROTOCOL: In vitro antiplasmodial activity, SYBR Green I fluorescence-based method, strain W2
# Assay type: cell-based
# EXPERIMENTAL_PARAMETERS: SI = CC50 HepG2 / IC50 P. falciparum W2
ASSAY_METRIC: Selectivity index HepG2/W2
In your answer, state the number alone without any accompanying words.

Solved cases below.
GET /values?readout=Selectivity index HepG2/W2&item= COc1ccc2nc(-c3ccc(CNCCN4CCN(C)CC4)cc3)nc(-c3ccc(CNCCN4CCN(C)CC4)cc3)c2c1
4.87

GET /values?readout=Selectivity index HepG2/W2&item= COc1ccc2c(-c3ccc(CNCCN(C)C)cc3)nc(-c3ccc(CNCCN(C)C)cc3)nc2c1
1.15

GET /values?readout=Selectivity index HepG2/W2&item= COc1ccc2c(-c3ccc(CNCCCN4CCN(C)CC4)cc3)nc(-c3ccc(CNCCCN4CCN(C)CC4)cc3)cc2c1
0.21

GET /values?readout=Selectivity index HepG2/W2&item= COc1ccc2cc(-c3ccc(CNCCCCN4CCN(C)CC4)cc3)nc(-c3ccc(CNCCCCN4CCN(C)CC4)cc3)c2c1
1.33

GET /values?readout=Selectivity index HepG2/W2&item= COc1ccc2c(-c3ccc(CNCCCCN4CCN(C)CC4)cc3)nc(-c3ccc(CNCCCCN4CCN(C)CC4)cc3)cc2c1
1.09

Turning to the following compound.
GET /values?readout=Selectivity index HepG2/W2&item= COc1ccc2cc(-c3ccc(CNCCCN4CCN(C)CC4)cc3)nc(-c3ccc(CNCCCN4CCN(C)CC4)cc3)c2c1
5.61
